All values here come from PubChem BioAssay (NCI).

System: UACC-257 melanoma
Experiment: NCI-60 one-dose screen, 48 h (100 = growth as untreated, 0 = no growth, -100 = all killed)
Details: 10 µM unless noted
The panel holds about 83,000 compounds, 20% with a hit somewhere; the sample as a whole holds those more often.
Classes based on growth: low band = under 60%, middle band = from 60% up to 90%, high band = 90% and over

>>> class_name("COc1ncnc2[nH]cc(CN3CCN(c4ccc(F)cc4)CC3)c12")
"high band"
>>> class_name("Cc1cccc(/C=N/n2c(-c3ccc(Cl)cc3)nc3c(Br)cc(Br)cc3c2=O)c1")
"middle band"
>>> class_name("Cc1cc(C#Cc2ccc(C(C)(C)C)cc2)ccc1-n1c(/C=C/c2c(Cl)cccc2Cl)nc2ccccc2c1=O")
"high band"
>>> class_name("Cc1ccc([C@H]2c3[nH]c4ccccc4c3C[C@H]3C(=O)N(CCCCCCC(=O)NO)CC(=O)N23)cc1")
"low band"
>>> class_name("COc1cc(/C=C/c2cc(/C=C/c3ccc(O)c(OC)c3)n(C(=O)c3ccccc3Br)n2)ccc1O")
"middle band"
>>> class_name("CN(C)c1nc(-c2cccs2)n2nc(-c3ccc(Cl)cc3)cc2n1")
"middle band"
>>> class_name("CCN(CC)c1ccc(/C=N/N=C(N)N)cc1")
"low band"
>>> class_name("O=C(Nc1cccc(C2=NCCN2)c1)c1ccc(N=Nc2ccc(C(=O)Nc3cccc(C4=NCCN4)c3)cc2)cc1")
"low band"

###

Test system: MDA-MB-435 melanoma
Assay: NCI-60 one-dose screen, 48 h
Conditions: 10 µM unless noted
About 83,000 compounds went through this panel and 20% of them were active in at least one assay; those are over-represented in the sample as a whole. Calls of active or inactive are those of the source. The calls were made as follows: active = growth percent below 10; inactive = the rest.
Outcome codes: active, inactive

>>> class_name("O=C(Nc1ccc([N+](=O)[O-])cc1)c1cc2ccccc2cc1O")
"active"
>>> class_name("c1ccc2oc(-c3cnc4nonc4n3)cc2c1")
"inactive"
>>> class_name("O/N=C1\\c2ccccc2-c2ccc(Br)cc21")
"inactive"
>>> class_name("CCCCCCCCCCCCCC1=NC(C)(C)CN1C(C)C")
"active"
>>> class_name("O=C(N/N=C\\c1cc(Br)ccc1O)c1ccncc1")
"inactive"
>>> class_name("O=C(/C=C/c1ccccc1Br)c1cccc(OCCCCOc2cccc(C(=O)/C=C/c3ccccc3Br)c2)c1")
"inactive"
>>> class_name("CCCCCc1c(C)[nH]c(/C=C2\\N=C(c3ccc[nH]3)C=C2Oc2ccc(OC)cc2)c1C")
"active"
>>> class_name("Cc1cccc2nc3ccccc3c(Nc3ccc(NS(C)(=O)=O)cc3)c12")
"inactive"
>>> class_name("Cc1cc(Nc2c3ccccc3nc3ccccc23)ccc1NS(C)(=O)=O")
"inactive"
>>> class_name("NS(=O)(=O)c1ccc(CCn2c(SCC(=O)N/N=C/c3ccccc3O)nc3ccccc3c2=O)cc1")
"active"
>>> class_name("CC(C)N(C(=S)SSC(=S)N(C(C)C)C(C)C)C(C)C")
"inactive"
>>> class_name("CCN(CC)c1ccc(/C=N/NC(=O)C[N+](C)(C)C)cc1")
"inactive"
>>> class_name("CCCCSc1ncnc2c1ncn2C1CCCCO1 (stereo unspecified)")
"inactive"
>>> class_name("COc1ccc(C(=O)OC2C(OC3C(O)COC(O[C@H]4C[C@H]5[C@@H]6CC=C7C[C@@H](O)CC[C@]7(C)[C@H]6CC[C@]5(C)[C@H]4[C@H](C)C(=O)CCC(C)C)C3OC(=O)C(C)C)OCC(O)C2O)cc1 (stereo partly specified)")
"active"
>>> class_name("COC(=O)CSc1ccc(Cl)cc1")
"inactive"
>>> class_name("CCCCOC(=O)c1cc(O)c(O)c(O)c1")
"inactive"
>>> class_name("CCN1CCN(Cc2ccc(NC(=O)Nc3ccc(-n4ccc5c(NC(=O)c6ccccc6)nccc54)cc3)cc2C(F)(F)F)CC1")
"active"
>>> class_name("COc1cc(OC)c(C(=O)/C=C/c2cccc(OC(C)=O)c2)cc1CC=C(C)C")
"inactive"
>>> class_name("COc1cnc2c(c1)C(=O)c1c-2n(CCCNC(C)C)c(=O)c2cc(Cl)ccc12")
"active"
>>> class_name("C=CC(=O)N1CN(C(=O)C=C)CN(C(=O)C=C)C1")
"inactive"
>>> class_name("NC(N)=NC1CCCCC1")
"inactive"
>>> class_name("COc1cc2c(c(OC)c1O)C(=O)C(OC)C(c1ccc(O)c(O)c1)O2 (stereo unspecified)")
"active"
>>> class_name("COc1cc(/C=C2\\CN(C(=O)OC(C)(C)C)C/C(=C\\c3ccc(O)c(OC)c3)C2=O)ccc1O")
"inactive"
>>> class_name("CCN(C(=O)CCl)C(C)(C)C(SSSC(c1ccc(Cl)cc1)C(C)(C)N(CC)C(=O)CCl)c1ccc(Cl)cc1 (stereo unspecified)")
"inactive"
>>> class_name("COc1ccc(C(=O)O)cc1.[Ag]")
"inactive"
>>> class_name("CCCCCCCCCCCCCCCCCC1=NCCN1CCO")
"inactive"
>>> class_name("CCc1onc(-c2ccc(OC)cc2)c1-c1ccccc1OCCN(CC)CC")
"inactive"
>>> class_name("CN(C)N1C(=O)c2c(Cl)c(Cl)c(Cl)c(Cl)c2C1=O")
"inactive"
>>> class_name("O=C(/C=C/c1ccc(F)cc1)N1CCN(C(=O)/C=C/c2ccc(C(F)(F)F)cc2)CC1")
"inactive"
>>> class_name("c1cc2c(cc1-c1cnc3nonc3n1)OCO2")
"inactive"
>>> class_name("C=C(c1ccc(C(=O)NCCCn2ccnc2)cc1)c1cc2c(cc1C)C(C)(C)CCC2(C)C")
"active"
>>> class_name("CN1C2CCC1/C(=C\\c1ccc(Cl)cc1)C(=O)/C2=C/c1ccc(Cl)cc1")
"inactive"
>>> class_name("Nc1ccc(C2=NNC(=O)Cc3cc4c(cc32)OCCO4)cc1Cl")
"active"
>>> class_name("NC(=S)N1N=C(c2ccc(Cl)cc2)CC1c1cc2ccccc2[nH]c1=O (stereo unspecified)")
"inactive"
>>> class_name("C=C1C(=O)O[C@H]2[C@H]1CC/C(COC(=O)N[C@@H](Cc1c[nH]c3ccccc13)C(=O)OC)=C\\CC[C@@]1(C)O[C@@H]21")
"inactive"
>>> class_name("COc1cc(Nc2ncccc2/C=C/C(=O)c2cc(OC)c(OC)c(OC)c2)cc(OC)c1OC")
"inactive"
>>> class_name("c1ccc2c(N=NSc3ncnc4nc[nH]c34)c3ccccc3nc2c1")
"active"
>>> class_name("Cc1ccc([C@H]2c3[nH]c4ccccc4c3C[C@H]3C(=O)N(CCCCCCC(=O)NO)CC(=O)N23)cc1")
"inactive"
>>> class_name("COc1cc(C2CC(c3ccc(Cl)cc3)=NN2C(C)=O)ccc1Oc1ccnc2cc(Cl)ccc12 (stereo unspecified)")
"inactive"
>>> class_name("COc1cc(/C=C/c2cc(/C=C/c3ccc(O)c(OC)c3)n(C(=O)Nc3ccc(F)c(Cl)c3)n2)ccc1O")
"active"
>>> class_name("COc1ccc(-c2cc(-c3ccc(OC)cc3)c3sc(=O)[nH]c3n2)cc1")
"inactive"
